Consider the following compounds; for each one, report its GI50.
Test system: SNB-19
Test: NCI tumour cell line growth inhibition, 48 h
Activity calls are given as the source filed them. No stated cut-off is given here; in the data, active = GI50 up to about 1.1 µM and inactive = higher.

Qu. Could you share which GI50 value was measured for `CCN(CC)c1ccc(NC(=S)NN(C)C)cc1` ?
Ans. > 10 µM (inactive)

Qu. Could you share which GI50 value was measured for CCOC(=O)C(NC(=O)C(CCCCNP(=O)(OCC)OCC)NC(=O)C(C)NC(C)=O)C(C)C (stereo not given) ?
Ans. > 100 µM (inactive)

Qu. Could you share which GI50 value was measured for CC1=Nc2c(ccc3c2C(=O)c2ccccc2C3=O)NC(c2cccc3c2CCC3)C1 (stereo not given) ?
Ans. > 100 µM (inactive)

Qu. Could you share which GI50 value was measured for `COCc1nc(C#N)c(N)o1` ?
Ans. > 10 µM (inactive)

Qu. Could you share which GI50 value was measured for COc1ccc(/C(=N\NC(=O)C(=O)NN)C(c2ccc(OC)cc2)C2(O)C(=O)Nc3ccccc32)cc1 (stereo not given) ?
Ans. 53.3 µM (inactive)
